Values from patent US20130344070A1

I'd appreciate it if you could supply IC50 in chemotaxis assay using human THP-1 cells, ligand MCP-1 (3 nM) values for the items below.
# ASSAYED TARGET: human CCR2 (CC-Chemokine Receptor 2) (human, UniProt P41597 1-374)
# Sequence (P41597 whole entry): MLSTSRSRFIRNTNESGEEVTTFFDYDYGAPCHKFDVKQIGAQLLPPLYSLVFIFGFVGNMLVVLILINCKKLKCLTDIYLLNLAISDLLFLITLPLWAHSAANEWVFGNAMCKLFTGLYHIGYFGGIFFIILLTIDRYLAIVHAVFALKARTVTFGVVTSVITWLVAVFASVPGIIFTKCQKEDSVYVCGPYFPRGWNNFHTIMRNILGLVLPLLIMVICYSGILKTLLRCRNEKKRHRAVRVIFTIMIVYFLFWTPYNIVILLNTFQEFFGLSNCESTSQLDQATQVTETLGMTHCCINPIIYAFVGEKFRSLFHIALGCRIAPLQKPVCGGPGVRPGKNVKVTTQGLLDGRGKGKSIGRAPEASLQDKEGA
# TEST DESCRIPTION: cell-based or functional assay
Express the result in nM but write the number alone.

Memo: D1-1/LO (antibody, V domains shown, The suffix '/LO' is not explained) VH: QVQLVQSGAEVKKPGASVKVSCKASGYTFTGYYMHWVRQAPGQGLEWMGWINPNSGVTKYAQKFQGRVTMTRDTSTSTVYMELSSLRSEDTAVYYCATGGFGYWGEGTLVTVSS VL: LPVLTQPPSVSKGLRQTATLTCTGNSNNVGNQGAAWLQQHQGQPPKLLSYRNHNRPSGVSERFSPSRSGDTSSLTITGLQPEDEADYYCLAWDSSLRAFVFGTGTKLTVL , reported IC50 in chemotaxis assay using human THP-1 cells, ligand MCP-1 (3 nM): 0.13

The binder D1 (antibody, human IgG1, V domains shown, also called CCR2 D1 IgG; anti-CCR2 D1 antibody) VH: EVQLVQSGAEVKKPGASVKVSCKASGYTFTGYHMHWVRQAPGQGLEWMGWINPNSGVTKYAQKFQGRVTMTRDTSINTAYMELSRLRFDDTDVYYCATGGFGYWGEGTLVTVSS VL: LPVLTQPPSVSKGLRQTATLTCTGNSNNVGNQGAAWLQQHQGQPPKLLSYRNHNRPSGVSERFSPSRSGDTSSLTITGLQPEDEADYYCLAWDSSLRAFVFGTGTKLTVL showed IC50 in chemotaxis assay using human THP-1 cells, ligand MCP-1 (3 nM) equal to 0.17

Lab note: 1G11 (antibody, human IgG1, V domains shown) VH: EVQLVESGAEVKKPGASVKVSCKASGYIFTGYYIHWVRQAPGQGLEWMGWINPNNGVTKYAEKFQGRVTMTRDTSITTAYMDLSRLRSDDTAIYYCATGGFEYWGQGTLVTVSS VL: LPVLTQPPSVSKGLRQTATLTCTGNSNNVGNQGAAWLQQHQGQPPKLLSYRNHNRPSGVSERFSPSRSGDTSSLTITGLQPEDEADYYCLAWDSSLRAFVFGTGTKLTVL gave IC50 in chemotaxis assay using human THP-1 cells, ligand MCP-1 (3 nM) of 0.08

// 1B2 (antibody, human IgG1, V domains shown) VH: EVQLVESGAEVKKPGASVKVSCKASGYTFTGYYMNWVRQAPGQGLEWMGWINPNSGGTKYAQKFQGRVTMTSDTSINTAYMELSRLRYDDTAVYYCATGGFQHWGQGTLVTVSS VL: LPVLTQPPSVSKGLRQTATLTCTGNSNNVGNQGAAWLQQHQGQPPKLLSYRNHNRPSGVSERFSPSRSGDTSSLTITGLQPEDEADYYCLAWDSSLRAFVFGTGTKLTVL : IC50 in chemotaxis assay using human THP-1 cells, ligand MCP-1 (3 nM) value = 0.09

Recorded IC50 in chemotaxis assay using human THP-1 cells, ligand MCP-1 (3 nM) (binder D1-1/45H8L1 (antibody, V domains shown, also called D1H1/45H8L1; D1-1B) VH: QVQLVQSGAEVKKPGASVKVSCKASGYTFTGYYMHWVRQAPGQGLEWMGWINPNSGVTKYAQKFQGRVTMTRDTSTSTVYMELSSLRSEDTAVYYCATGGFGYWGEGTLVTVSS VL: QAVLTQPPSVSKGLRQTATLTCTGNSNNVGNQGAAWLQQHQGQPPKLLSYRNHNRPSGVSERFSPSRSGDTSSLTITGLQPEDEADYYCLAWDSSLRAFVFGTGTKLTVL ): 0.28
